- assay_overview: In vivo zebrafish kinetics of BPZ (water exposure, organ concentrations by LC-MS/MS)
- Set-up: species or system zebrafish (Danio rerio)
- assay_conditions: female, zebrafish, brain, other: exposure via tank water, 10 μg/L (nominal water concentration), female zebrafish, 504 h (depuration phase); read-out: Mean concentration, brain
- Method: At sampling, adult fish were euthanized by immersion in a sodium bicarbonate-buffered tricaine methanesulfonate solution (MS222: 500 mg/L) and decapitated thereafter. […] 176The extracts were measured on a LC (ExionLC, Sciex) coupled with a Turbo V Ion source (ESI) […] 195plus the average blank value. The limit of quantification (LOQ) is defined as 3.3 * LOD value […] Detection and report limits (calculated on based of average sample intake)
recorded_endpoint: concentration at 504 h

[[record]]
smi = "Oc1ccc(C2(c3ccc(O)cc3)CCCCC2)cc1"
recorded_measurement = "< 3 ng/g"

